System: CYP3A
assay_comment: CYP inhibition in human liver microsomes
Assay type: in vitro ADME
experimental_endpoint: inhibition at 10 µM (%)
Numeric only. Scale: %

CC12CCCC(C(=O)Nc3nc4ccc(OC(F)(F)F)cc4s3)(CCC1)C2 | 0

Find inhibition at 10 µM (CYP3A) for the entry `CC12CCCC(C(=O)Nc3nc4cc(Cl)cc(Cl)c4s3)(CCC1)C2` 26

###

subject_of_test: CYP2B6 (Homo sapiens)
Construct: incubated with human liver microsomes in buffer containing 2 mM NADPH and probe substrate; from tissue; host or cells: human liver microsomes
Sequence (P20813 1-491): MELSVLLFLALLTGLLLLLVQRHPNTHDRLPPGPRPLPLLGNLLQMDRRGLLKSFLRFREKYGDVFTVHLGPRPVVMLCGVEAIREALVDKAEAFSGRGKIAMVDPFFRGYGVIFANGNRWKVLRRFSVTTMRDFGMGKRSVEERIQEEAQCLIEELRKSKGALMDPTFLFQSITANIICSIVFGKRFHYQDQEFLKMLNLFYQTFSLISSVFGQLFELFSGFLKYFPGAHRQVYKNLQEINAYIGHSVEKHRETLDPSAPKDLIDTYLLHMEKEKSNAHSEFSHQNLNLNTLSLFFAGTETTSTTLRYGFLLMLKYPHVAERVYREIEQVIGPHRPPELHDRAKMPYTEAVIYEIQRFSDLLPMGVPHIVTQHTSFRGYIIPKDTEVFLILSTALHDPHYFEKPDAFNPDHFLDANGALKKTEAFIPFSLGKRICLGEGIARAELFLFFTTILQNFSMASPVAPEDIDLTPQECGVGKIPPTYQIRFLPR
assay_comment: CYP inhibition in human liver microsomes
Type: in vitro ADME
# reported inhibition at 10 µM; entries follow
Numeric only. Scale: %

CC12CCCC(C(=O)Nc3nc4cc(Cl)cc(Cl)c4s3)(CCC1)C2 | 39

Let us examine a further case.
I have this compound here, `CC12CCCC(C(=O)Nc3nc4ccc(OC(F)(F)F)cc4s3)(CCC1)C2` , and I need its recorded inhibition at 10 µM. 30

###

assay_comment: Mouse oral PK and tolerability
Type: in vivo, female CD-1 mice
test_conditions: mouse, plasma; oral 100 mg/kg, female CD-1 mice, 8 h; read-out: plasma level
experimental_endpoint: concentration at 8 h (µg/mL)
Numeric only. Scale: µg/mL

I have this compound here, `CC12CC3CC(C)(C1)CC(C(=O)Nc1nc4ccc(OC(F)(F)F)cc4s1)(C3)C2` , and I need its recorded concentration at 8 h. 2

###

assay_comment: physchem
Format: physicochemical
test_conditions: pH 7.4, aqueous buffer, thermodynamic from solid
# reported solubility at 24 h; entries follow

Worked set:
CC12CCCC(C(=O)Nc3nc4ccc(OC(F)(F)F)cc4s3)(CCC1)C2 [CRS400359] | < 3 µM
CC12CC3CC(C)(C1)CC(C(=O)Nc1nc4ccc(OC(F)(F)F)cc4s1)(C3)C2 [CRS400226] | < 3 µM
CC1CC(C(=O)Nc2nc3c(F)cc(F)cc3s2)CC(C)(C)C1 (stereo not shown) [CRS400153] | 3 µM

I have this compound here, CC12CCCC(C(=O)Nc3nc4cc(Cl)cc(Cl)c4s3)(CCC1)C2 [CRS400393] , and I need its recorded solubility at 24 h. < 3 µM

###

assay_comment: HepG2 cytotoxicity, 72 h
Format: cell-based
test_conditions: human, HepG2 cells; HepG2, 72 h; value in brackets; read-out: HepG2 cytotox., IC50
experimental_endpoint: IC50 at 72 h

CC12CCCC(C(=O)Nc3nc4cc(Cl)cc(Cl)c4s3)(CCC1)C2 [CRS400393] | > 4 µg/mL

I have this molecule here, CC12CCCC(C(=O)Nc3nc4ccc(OC(F)(F)F)cc4s3)(CCC1)C2 [CRS400359] , and I need its recorded IC50 at 72 h. 4 µg/mL

I have this molecule here, CC12CC3CC(C)(C1)CC(C(=O)Nc1nc4ccc(OC(F)(F)F)cc4s1)(C3)C2 [CRS400226] , and I need its recorded IC50 at 72 h. 29 µg/mL

###

assay_comment: Mouse oral PK and tolerability
Type: in vivo, female CD-1 mice
test_conditions: mouse, plasma; oral 100 mg/kg, female CD-1 mice, 1 h; read-out: plasma level
experimental_endpoint: concentration at 1 h
Phrase the answer as number then unit, nothing more needed.

I have this compound here, `CC12CC3CC(C)(C1)CC(C(=O)Nc1nc4ccc(OC(F)(F)F)cc4s1)(C3)C2` , and I need its recorded concentration at 1 h. 2300 ng/mL

###

Test system: M. tuberculosis H37Rv mc^2 6206
assay_comment: microbe, parasite or virus in culture
Type: cell-based
test_conditions: Mycobacterium tuberculosis, 168 h
# reported MIC; entries follow
Numeric only. Scale: µg/mL

Worked set:
CC12CC3CC(C)(C1)CC(C(=O)Nc1nc4ccc(OC(F)(F)F)cc4s1)(C3)C2 [CRS400226] | 0.5
CC1CC(C(=O)Nc2nc3c(F)cc(F)cc3s2)CC(C)(C)C1 (stereo not shown) [CRS400153] | 1

I have this compound here, CC12CCCC(C(=O)Nc3nc4ccc(OC(F)(F)F)cc4s3)(CCC1)C2 [CRS400359] , and I need its recorded MIC. 0.5

###

# reported MIC; entries follow
Tested on: M. abscessus 1
assay_comment: MIC in MHB versus 7H9+OADC
Type: cell-based
test_conditions: M. abscessus 1, MHB
Phrase the answer as number then unit, nothing more needed.

CC12CC3CC(C)(C1)CC(C(=O)Nc1nc4ccc(OC(F)(F)F)cc4s1)(C3)C2 [CRS400226] | 0.25 µg/mL
CC12CCCC(C(=O)Nc3nc4cc(Cl)cc(Cl)c4s3)(CCC1)C2 [CRS400393] | 0.06 µg/mL
CC12CCCC(C(=O)Nc3nc4ccc(OC(F)(F)F)cc4s3)(CCC1)C2 [CRS400359] | 0.06 µg/mL

I have this compound here, NCC[C@H](O)C(=O)N[C@@H]1C[C@H](N)[C@@H](O[C@H]2O[C@H](CN)[C@@H](O)[C@H](O)[C@H]2O)[C@H](O)[C@H]1O[C@H]1O[C@H](CO)[C@@H](O)[C@H](N)[C@H]1O [Amikacin, reference compound] , and I need its recorded MIC. 8 µg/mL

###

assay_comment: in vitro
Type: in vitro ADME
test_conditions: human, microsomes
Protocol: ADMET assays were performed through NIAID Preclinical Services and Eurofins. Potential for cytotoxicity was monitored in HepG2 cells after 72 h growth in the presence of test compounds, either prepared as 10-point 3-fold serial dilutions or at a fixed 10 μM concentration. Cell viability was measured using the CellTiter-Glo® Luminescent Cell Viability Assay (Promega) or via fluorescent image analysis. […]
experimental_endpoint: microsomal CLint (µL/min/mg)
Numeric only. Scale: µL/min/mg

I have this compound here, CC12CC3CC(C)(C1)CC(C(=O)Nc1nc4ccc(OC(F)(F)F)cc4s1)(C3)C2 [CRS400226] , and I need its recorded microsomal CLint. 124
